- TESTED TARGET: Thyroid hormone receptor alpha (Homo sapiens, UniProt P10827)
- Sequence (P10827 whole entry): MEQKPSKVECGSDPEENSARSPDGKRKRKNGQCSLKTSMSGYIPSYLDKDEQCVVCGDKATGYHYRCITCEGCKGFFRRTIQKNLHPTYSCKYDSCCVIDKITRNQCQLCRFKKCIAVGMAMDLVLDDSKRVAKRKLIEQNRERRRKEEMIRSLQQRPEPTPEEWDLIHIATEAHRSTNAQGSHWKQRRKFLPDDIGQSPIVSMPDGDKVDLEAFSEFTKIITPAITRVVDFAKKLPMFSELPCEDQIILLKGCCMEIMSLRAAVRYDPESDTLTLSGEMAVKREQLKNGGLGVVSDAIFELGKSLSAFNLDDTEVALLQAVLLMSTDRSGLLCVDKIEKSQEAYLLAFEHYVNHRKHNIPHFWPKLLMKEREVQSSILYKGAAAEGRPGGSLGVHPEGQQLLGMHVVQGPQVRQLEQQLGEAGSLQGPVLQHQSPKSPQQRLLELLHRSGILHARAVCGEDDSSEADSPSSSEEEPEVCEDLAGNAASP
pEC50: −log10 of the molar value.
So basically: pEC50 at 7 or higher? That is Y. Lower than 7? That is N.

>>> classification("O=C1NC(=O)C(Cc2cc(I)c(Oc3ccc(O)c(Br)c3)c(I)c2)N1 (centres undefined)")
"N"
>>> classification("CC(C)c1cc(Oc2c(I)cc(CC3NC(=O)NC3=O)cc2I)ccc1O (centres undefined)")
"Y"
>>> classification("O=C1NC(=O)C(Cc2cc(I)c(Oc3ccc(O)cc3)c(I)c2)N1 (centres undefined)")
"N"
>>> classification("COc1cc(Oc2c(I)cc(CC3NC(=O)NC3=O)cc2I)ccc1O (centres undefined)")
"N"

Where these numbers come from: ChEMBL document CHEMBL1143954
